These measurements were taken from patent US8541418B2.

pIC50 overview
- TESTED_SYSTEM: PLK2 (Homo sapiens)
- Sequence (Q9NYY3 whole entry): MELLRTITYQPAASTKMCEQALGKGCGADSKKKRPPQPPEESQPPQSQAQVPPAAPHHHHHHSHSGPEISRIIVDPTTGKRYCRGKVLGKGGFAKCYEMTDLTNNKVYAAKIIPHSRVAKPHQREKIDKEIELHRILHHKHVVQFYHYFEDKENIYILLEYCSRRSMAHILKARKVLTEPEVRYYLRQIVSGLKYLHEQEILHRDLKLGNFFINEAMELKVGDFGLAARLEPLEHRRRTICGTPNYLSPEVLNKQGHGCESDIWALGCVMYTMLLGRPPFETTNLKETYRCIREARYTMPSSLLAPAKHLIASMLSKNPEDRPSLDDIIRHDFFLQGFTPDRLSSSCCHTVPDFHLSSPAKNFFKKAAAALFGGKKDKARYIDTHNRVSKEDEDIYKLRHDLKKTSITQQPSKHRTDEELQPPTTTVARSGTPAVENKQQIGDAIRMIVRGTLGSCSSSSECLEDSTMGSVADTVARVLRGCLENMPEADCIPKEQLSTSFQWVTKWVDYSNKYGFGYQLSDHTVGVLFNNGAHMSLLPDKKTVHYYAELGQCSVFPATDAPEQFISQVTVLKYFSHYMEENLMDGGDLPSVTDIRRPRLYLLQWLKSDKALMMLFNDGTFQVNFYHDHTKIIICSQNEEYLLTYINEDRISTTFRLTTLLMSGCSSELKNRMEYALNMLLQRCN
- EXPERIMENT_NOTES: PLK TR-FRET peptide assay, PLK2
- Assay type: biochemical
- CONDITION_PARAMETERS: PLK TR-FRET peptide assay, GST-PLK2, 60 min reaction; read-out: Plk2 IC50
pIC50: −log10 of the molar value.

Consider the following illustrative entries.
compound="CC[C@@H]1C(=O)N(C)c2cnc(-c3nccs3)nc2N1C1CCCC1 [Example 330]" tested_system="PLK2 (Homo sapiens)" reported_result="> 6.00"
compound="CCC1C(=O)N(C)c2cnc(-c3cn[nH]c3-c3nccs3)nc2N1c1ccc(F)cc1 (stereo not shown) [Example 370]" tested_system="PLK2 (Homo sapiens)" reported_result="> 6.00"

In one line, give reported pIC50 of the entry CC[C@@H]1C(=O)N(C)c2cnc(-c3ccc(S(C)(=O)=O)cc3)nc2N1C1CCCC1 [Example 64] . > 6.00
